Target: T1, PirB (Vibrio parahaemolyticus)
T1 construct: also called JHE-like toxin PirB-like
T1 chain: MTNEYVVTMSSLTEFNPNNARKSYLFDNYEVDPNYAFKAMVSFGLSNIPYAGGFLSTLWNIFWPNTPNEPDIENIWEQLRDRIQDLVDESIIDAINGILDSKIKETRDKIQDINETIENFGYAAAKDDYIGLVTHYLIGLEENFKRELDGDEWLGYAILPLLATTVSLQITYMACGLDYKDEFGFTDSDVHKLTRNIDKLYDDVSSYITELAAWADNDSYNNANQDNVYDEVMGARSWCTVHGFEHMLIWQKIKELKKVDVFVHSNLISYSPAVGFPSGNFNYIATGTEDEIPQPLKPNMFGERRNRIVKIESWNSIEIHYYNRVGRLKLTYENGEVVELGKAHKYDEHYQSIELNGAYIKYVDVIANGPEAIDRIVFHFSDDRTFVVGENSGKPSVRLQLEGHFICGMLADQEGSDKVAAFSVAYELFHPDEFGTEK
Assay: phage ELISA, antigen-coated wells
readout.label: binding above PBS-coated wells

binder: NBX0861 (VHH, on phage in the phage ELISA) VHH: QVQLQESGGGLVQAGGSLRLSCVASGSISNSHVMGWYRQAPGKERELVATLTSGGLTHFGDSVKGRFTISRDNAKNTIYLQMNSLKVEDTAVYYCNARRLLTSMWGQGTQVTVSP
value: ≥ 50%

// next item, binding above PBS-coated wells requested
Query NBX0645 (VHH, on phage in the phage ELISA) VHH: QVQLQESGGGLVQAGGSLRLSCAASGSIFSGNVMGWYRQVPGKQRDLVATITGGGITHYADSVKGRFTISRDNAKNTVYLQMNSLKPEDTAVYYCLYRRIMQQYWGQGTQVTVSS yields binding above PBS-coated wells of ≥ 50%

Measured values drawn from patent US20220119506A1 for this set.
